# Target system: T1, human ferroportin (SLC40A1) fused in frame with GFP (human) (UniProt Q9NP59)
# T1 sequence (looked up): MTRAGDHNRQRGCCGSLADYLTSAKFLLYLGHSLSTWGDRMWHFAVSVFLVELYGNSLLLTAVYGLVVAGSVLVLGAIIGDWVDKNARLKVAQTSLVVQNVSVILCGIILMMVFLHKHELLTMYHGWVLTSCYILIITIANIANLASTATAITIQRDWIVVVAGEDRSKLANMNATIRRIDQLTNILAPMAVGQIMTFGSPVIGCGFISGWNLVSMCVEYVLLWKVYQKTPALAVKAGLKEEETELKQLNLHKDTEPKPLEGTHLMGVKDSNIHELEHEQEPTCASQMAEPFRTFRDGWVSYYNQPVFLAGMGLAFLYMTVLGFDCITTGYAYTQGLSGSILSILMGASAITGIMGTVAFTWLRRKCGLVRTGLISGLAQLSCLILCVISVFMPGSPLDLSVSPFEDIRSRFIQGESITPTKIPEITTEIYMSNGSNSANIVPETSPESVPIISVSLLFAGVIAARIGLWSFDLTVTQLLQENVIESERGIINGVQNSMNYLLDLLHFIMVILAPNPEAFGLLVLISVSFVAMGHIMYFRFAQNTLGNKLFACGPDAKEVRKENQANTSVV
# Experiment notes: cell-based or functional assay
Starred links: 1 amine or outer side, 2 acyl side, 3 side chain; linkers in the order of their positions; H or OH if unused. Positions of bridges follow the written chain, without caps; N, C: chain ends. Non-standard residues stand in square brackets, D forms with d. Groups on a side chain read outwards from the residue. No end group written: not given here. *: point of attachment. Dip = N[C@H](C(=O)O)C(c1ccccc1)c1ccccc1; γGlu = O=C(O)[C@H](CCC(=O)[*:2])N[*:1]; Palmitoyl = CCCCCCCCCCCCCCCC(=O)*; β3hF = N[C@H](CC(=O)O)Cc1ccccc1; Isovaleryl = CC(C)CC(=O)*; Npc = nipecotic acid; Ahx = NCCCCCC(=O)O
Value kind: FPN EC50 (nM)
Give the value, in units of nM, as a plain number.

Completed entries (count: 4):
1. DTHXPCIKXKC (N-term isovaleric acid; 4 Dpa; 8 Lys[1Peg2-1Peg2-isoGlu-Behenic_Acid]; 9 bhPhe; 10 (D)Lys; C-term NH2) [Compd. ID 9] | 18.4
2. Isovaleryl-DTHFPCIK([γGlu-Palmitoyl])FEPR [Compd. ID 219] | 12.6
3. Isovaleryl-DTH[Dip][Npc]CI[dK][β3hF]K([γGlu-Palmitoyl])C[dK]-NH2 (disulfide 6-11 (inferred)) [Compd. ID 13] | 16.1
4. Isovaleryl-DTH[Dip]PCI[Arg(Nitro)][β3hF]K([Ahx-Palmitoyl])[dK]C-NH2 (disulfide 6-12 (inferred)) [Compd. ID 28] | 27.1

Exercise: Field request: FPN EC50 | item: DTHXPCIKXKKC (N-term isovaleric acid; 4 Dpa; 8 (D)Lys; 9 bhPhe; 10 Lys(Ahx_Ahx_Ahx_Palm); 11 (D)Lys; C-term NH2) [Compd. ID 40]
Key: 18.5
